B1: Receptor-interacting serine/threonine-protein kinase 2, residues 438 to 518; numbered along this chain, O43353 (parent)
chain: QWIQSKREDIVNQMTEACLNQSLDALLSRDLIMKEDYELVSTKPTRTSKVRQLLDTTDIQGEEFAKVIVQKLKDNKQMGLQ

variants of: B1; assay: abundance fitness (aPCA) (normalised: wild type 0, dead -1); higher = more abundant; growth selection in yeast, the domain comes from the species named; details: Homo sapiens
# abundance fitness >= -0.4 gives yes, anything below gives no

- Input Sequence: "QWIQSKREDIVNQMTEACLNQSLDALGSRDLIMKEDYELVSTKPTRTSKVRQLLDTTDIQGEEFAKVIVQKLKDNKQMGLQ [L27G]"
  Assigned Class: "no"
- Input Sequence: "QWIQSKREDIVNQMTEACLNQSLDALLSRDLIMKEWYELVSTKPTRTSKVRQLLDTTDIQGEEFAKVIVQKLKDNKQMGLQ [D36W]"
  Assigned Class: "no"
- Input Sequence: "QWIQSKREDIVNQMTEACLNQSLDALLSRDLIMKEDYELVSTKPTRTSKVRQLLDTTDIQGEEFAKVIVQKLSDNKQMGLQ [K73S]"
  Assigned Class: "yes"
- Input Sequence: "QWIQSKREDIVNQMTEACLNQSLDALLSRDLIMKEDYELVKTKPTRTSKVRQLLDTTDIQGEEFAKVIVQKLKDNKQMGLQ [S41K]"
  Assigned Class: "yes"
- Input Sequence: "QWIQSKREDIVNQMTEACLNQSLHALLSRDLIMKEDYELVSTKPTRTSKVRQLLDTTDIQGEEFAKVIVQKLKDNKQMGLQ [D24H]"
  Assigned Class: "no"
- Input Sequence: "QWIQSKREDIVNQMTEACLNQSLDALLSRDLIMKEDYEIVSTKPTRTSKVRQLLDTTDIQGEEFAKVIVQKLKDNKQMGLQ [L39I]"
  Assigned Class: "yes"
- Input Sequence: "QWIQSKREDIVNQMTEACLNQSLDALLSRDLIMKEDYELVSTKPTRTSKVRQMLDTTDIQGEEFAKVIVQKLKDNKQMGLQ [L53M]"
  Assigned Class: "no"
- Input Sequence: "QWIQSKREDIVNQMTEACLNQSLDALLSRDLIMKEDYELVSTKPTRTSKVRQLLDTTDIQGEEFAKVIVQKLKDNTQMGLQ [K76T]"
  Assigned Class: "yes"
- Input Sequence: "QWIQSKREDIVNQMTEACLNQSLDGLLSRDLIMKEDYELVSTKPTRTSKVRQLLDTTDIQGEEFAKVIVQKLKDNKQMGLQ [A25G]"
  Assigned Class: "no"
- Input Sequence: "QWIQSKREDIVNQMTEACLNQSLDALLSRDYIMKEDYELVSTKPTRTSKVRQLLDTTDIQGEEFAKVIVQKLKDNKQMGLQ [L31Y]"
  Assigned Class: "no"
- Input Sequence: "QWIQSKREDIVNQMTEACLNQSLDALLTRDLIMKEDYELVSTKPTRTSKVRQLLDTTDIQGEEFAKVIVQKLKDNKQMGLQ [S28T]"
  Assigned Class: "yes"
- Input Sequence: "QWIQSKREDIVNQMTEACLNQSLDALLSRGLIMKEDYELVSTKPTRTSKVRQLLDTTDIQGEEFAKVIVQKLKDNKQMGLQ [D30G]"
  Assigned Class: "yes"
- Input Sequence: "QWIQSKREDIVNQMTEACLNQDLDALLSRDLIMKEDYELVSTKPTRTSKVRQLLDTTDIQGEEFAKVIVQKLKDNKQMGLQ [S22D]"
  Assigned Class: "yes"
- Input Sequence: "QWIQSKREDIVNQMTEACLNQSLDALLSRDLIMKEDYELVSTKPTRTSKVRQLLDTTDIQGEEFAKVIVQKLKDHKQMGLQ [N75H]"
  Assigned Class: "yes"
- Input Sequence: "QWIQSKREDIVNQMTEACLNQYLDALLSRDLIMKEDYELVSTKPTRTSKVRQLLDTTDIQGEEFAKVIVQKLKDNKQMGLQ [S22Y]"
  Assigned Class: "no"
- Input Sequence: "QWIQSKREDIVNQMTEACLNQSLDALLSRDLIMKEDYELVSTKPTNTSKVRQLLDTTDIQGEEFAKVIVQKLKDNKQMGLQ [R46N]"
  Assigned Class: "yes"
- Input Sequence: "QWIQSKREDIVNQMTEACLNQSLDALLSRDLIMKEDYELVSTKPTRTSKVRQLLDTTVIQGEEFAKVIVQKLKDNKQMGLQ [D58V]"
  Assigned Class: "yes"
- Input Sequence: "QWIQSKREDIVNQMTEACLNQSLDALLSRDLIMKEDYELVSTKPTRTSKVRQLLDTTDIVGEEFAKVIVQKLKDNKQMGLQ [Q60V]"
  Assigned Class: "yes"
- Input Sequence: "QWIQSKREDIVNQMTEACLNQSLDALLSRDLIMKEDYELVSTKPTRTSKVRQLLDQTDIQGEEFAKVIVQKLKDNKQMGLQ [T56Q]"
  Assigned Class: "yes"
- Input Sequence: "QWIQSKREDIVNQMTEACLNQSLDALLSRDLIMKEDYELVQTKPTRTSKVRQLLDTTDIQGEEFAKVIVQKLKDNKQMGLQ [S41Q]"
  Assigned Class: "yes"
- Input Sequence: "QWIQSKREDIVNQMTEACLNQSLDALLSRDLIMKEDYELVSTKPTRTSKVRQLLDTTDIQGEEFAKVIAQKLKDNKQMGLQ [V69A]"
  Assigned Class: "yes"
- Input Sequence: "QWIQSKREDIVNQMTEACLNQSLDALLSRDLIMKEDYELVSTKPTRTSKVRQLLDTTDIQGEEFAKVIVQWLKDNKQMGLQ [K71W]"
  Assigned Class: "no"
- Input Sequence: "QWIQSKREDIVNQMTEACLNQSLDFLLSRDLIMKEDYELVSTKPTRTSKVRQLLDTTDIQGEEFAKVIVQKLKDNKQMGLQ [A25F]"
  Assigned Class: "yes"
- Input Sequence: "QWIQSKREDIVNQMTEACLNQSLDALLSRDLSMKEDYELVSTKPTRTSKVRQLLDTTDIQGEEFAKVIVQKLKDNKQMGLQ [I32S]"
  Assigned Class: "no"
- Input Sequence: "QWIQSKREDIVNQMTEACLNQSLDALLSRDLIMKEDYELVSTKPTRTSKVRQLLDTTDIQGEEFAKVIVQKLKDWKQMGLQ [N75W]"
  Assigned Class: "yes"
- Input Sequence: "QWIQSKREDIVNQMTEACLNQSLDALLSRDLIWKEDYELVSTKPTRTSKVRQLLDTTDIQGEEFAKVIVQKLKDNKQMGLQ [M33W]"
  Assigned Class: "no"
- Input Sequence: "QWIQSKREDIVNQMTEACLNQSLDALLSRDLIMKEDYELVSTKPTRTSKVRQLLDTTDIQFEEFAKVIVQKLKDNKQMGLQ [G61F]"
  Assigned Class: "no"
- Input Sequence: "QWIQSKREDIVNQMTEACLNQSLDALLSRDLIMKEDYELVSTKPTRTSKVRQLLDRTDIQGEEFAKVIVQKLKDNKQMGLQ [T56R]"
  Assigned Class: "no"
- Input Sequence: "QWIQSKREDIVNQMTEACLNQSLDALLSRDLIMKEDYELVSPKPTRTSKVRQLLDTTDIQGEEFAKVIVQKLKDNKQMGLQ [T42P]"
  Assigned Class: "no"
- Input Sequence: "QWIQSKREDIVNQMTEACLNQSLDALLSRDLIMKEDYELVSTKLTRTSKVRQLLDTTDIQGEEFAKVIVQKLKDNKQMGLQ [P44L]"
  Assigned Class: "yes"
- Input Sequence: "QWIQSKREDIVNQMTEACLNQSLDALKSRDLIMKEDYELVSTKPTRTSKVRQLLDTTDIQGEEFAKVIVQKLKDNKQMGLQ [L27K]"
  Assigned Class: "yes"
- Input Sequence: "QWIQSKREDIVNQMTEACLNQSLDALLSRDLIMKEDYELVSTKPERTSKVRQLLDTTDIQGEEFAKVIVQKLKDNKQMGLQ [T45E]"
  Assigned Class: "yes"
- Input Sequence: "QWIQSKREDIVNQMTEACLNQSLDALLSRDLLMKEDYELVSTKPTRTSKVRQLLDTTDIQGEEFAKVIVQKLKDNKQMGLQ [I32L]"
  Assigned Class: "yes"
- Input Sequence: "QWIQSKREDIVNQMTEACLNQSLDALLSRDLIMKEDYELVSTYPTRTSKVRQLLDTTDIQGEEFAKVIVQKLKDNKQMGLQ [K43Y]"
  Assigned Class: "no"
- Input Sequence: "QWIQSKREDIVNQMTEACLNQSLDALLSRDLIMKEDSELVSTKPTRTSKVRQLLDTTDIQGEEFAKVIVQKLKDNKQMGLQ [Y37S]"
  Assigned Class: "no"
- Input Sequence: "QWIQSKREDIVNQMTEACLNQSLDALLSRDLIMKEDYEVVSTKPTRTSKVRQLLDTTDIQGEEFAKVIVQKLKDNKQMGLQ [L39V]"
  Assigned Class: "yes"
- Input Sequence: "QWIQSKREDIVNQMTEACLNQSLDALLSRDLIMKEDYELVSTIPTRTSKVRQLLDTTDIQGEEFAKVIVQKLKDNKQMGLQ [K43I]"
  Assigned Class: "no"
- Input Sequence: "QWIQSKREDIVNQMTEACLNQSLDALLSRDLIMKEDYKLVSTKPTRTSKVRQLLDTTDIQGEEFAKVIVQKLKDNKQMGLQ [E38K]"
  Assigned Class: "yes"
- Input Sequence: "QWIQSKREDIVNQMTEACLNQSLDAFLSRDLIMKEDYELVSTKPTRTSKVRQLLDTTDIQGEEFAKVIVQKLKDNKQMGLQ [L26F]"
  Assigned Class: "no"
- Input Sequence: "QWIQSKREDIVNQMTEACLNQSLDALLSRDLIMKEDYELVSTKPTRTSKVRQLLDTTDIQGHEFAKVIVQKLKDNKQMGLQ [E62H]"
  Assigned Class: "no"
- Input Sequence: "QWIQSKREDIVNQMTEACLNQSLDALLSRDLIMKEDYELVSTKWTRTSKVRQLLDTTDIQGEEFAKVIVQKLKDNKQMGLQ [P44W]"
  Assigned Class: "no"
